Hello, the source for this data is patent US20090111847A1, in case you need it.

test system: Aphis craccivora; test: Insecticidal activity against Aphis craccivora by immersing (mortality after 24 hours); type: in vivo; settings: in vivo
ASSAY ENDPOINT: Mortality (%) (500 ppm) Aphis craccivora

- COC1C([N+](=O)[O-])=C2N(Cc3ccc(Cl)nc3)CCN2C(O)C1C (stereo not shown): 100
- CCC1C(C)C([N+](=O)[O-])=C2N(Cc3ccc(Cl)nc3)CCN2C1O (stereo not shown): 92
- CCC1C([N+](=O)[O-])=C2N(Cc3ccc(Cl)nc3)CCN2C(O)C1C (stereo not shown): 100
- COC1CC(C)(C)C([N+](=O)[O-])=C2N(Cc3ccc(Cl)nc3)CCN21 (stereo not shown): 100
- CC1CC(OCC(F)(F)F)N2CCN(Cc3ccc(Cl)nc3)C2=C1[N+](=O)[O-] (stereo not shown): 100
- CCC1CC([N+](=O)[O-])=C2N(Cc3ccc(Cl)nc3)CCN2C1O (stereo not shown): 100
- CCOC1C(C)CC([N+](=O)[O-])=C2N(Cc3ccc(Cl)nc3)CCN21 (stereo not shown): 100
- CCCCCOC1CC(C)C([N+](=O)[O-])=C2N(Cc3ccc(Cl)nc3)CCN21 (stereo not shown): 67
- CC1C(O)N2CCN(Cc3ccc(Cl)nc3)C2=C([N+](=O)[O-])C1(C)C (stereo not shown): 94
- CCCC1CC(OCC)N2CCN(Cc3ccc(Cl)nc3)C2=C1[N+](=O)[O-] (stereo not shown): 96
